Measured values drawn from ChEMBL document CHEMBL1201862 for this set.

# Test system: COLO 205
# method: NCI tumour cell line growth inhibition, 48 h
The source made the active and inactive calls. Rule as the data show it: active = GI50 up to about 1.1 µM and inactive = higher.
Pick from true for active, false for inactive when you respond.

Consider the worked cases shown below.
N#CC(c1ccnc(Cl)n1)c1nc2ccccc2s1 (stereo not given)    false
CC(=O)Nc1nc(NC(C)=O)c2nc(CO)[nH]c2n1    false

Incoming: For "O=[N+]([O-])C(/C(Cl)=C(/Cl)N1CCCCC1)=C1\NCCO1" , which call appears in the assay record?
Outgoing: false

Incoming: For "CCOC(=O)/C(=C\n1c(=O)sc2ccccc21)C(=O)c1ccccc1" , which call appears in the assay record?
Outgoing: false

Incoming: For CC(O)C(N/C=C1/N=C(c2ccccc2)OC1=O)C(=O)O (stereo not given) , which call appears in the assay record?
Outgoing: false

Incoming: For "N#C/C(=C1\N=C(c2ccccc2O)Oc2ccccc21)c1ccc([N+](=O)[O-])cc1" , which call appears in the assay record?
Outgoing: false

Incoming: For "N#C[C@H](C(=O)c1ccccc1F)c1nc2ccccc2s1" , which call appears in the assay record?
Outgoing: false
